Test system: BDF1 mice, colon carcinoma 38 sc, T/C %
procedure text: NCI In Vivo Anticancer Drug Screen. Data for tumor model Colon Carcinoma 38 (subcutaneous) in B6D2F1 (BDF1) mice
test conditions: endpoint: median tumor weight (est.); dose: 100.0 mg/kg/injection; schedule: Q07DX002 (ip); vehicle: saline; higher = larger tumour
Procedure: The antitumor activity of compounds was measured in mice bearing transplantable tumors. Survival or tumor size were measured and the results are expressed as the measurement made in the treated group (T) divided by the measurement made in the vehicle treated control group (C). The tumor model used in this assay is Colon Carcinoma 38 (subcutaneous) in B6D2F1 (BDF1) mice
Inconclusive results are not listed.
property name: T/C

Given the entry c1cnc2ncncc2n1 , report its measured T/C.
124 % of control

Given the entry OC(CCl)CN1CC[N+]2(CC1)CC[N+]1(CCN(CC(O)CCl)CC1)CC2 (configuration not stated) , report its measured T/C.
60 % of control

Given the entry N=c1nc2n(cc1F)[C@@H]1O[C@H](CO)[C@@H](O)[C@@H]1O2 , report its measured T/C.
118 % of control

Given the entry C=C1C(=O)OC2CC(C)C3C4OC4C(O)C3(C)C(O)C12 (configuration not stated) , report its measured T/C.
155 % of control

Given the entry C=CCOCC1CO1 (configuration not stated) , report its measured T/C.
85 % of control

Given the entry CC(C)NCC(O)COc1ccc(O)c(O)c1 (configuration not stated) , report its measured T/C.
121 % of control

Given the entry N#C[C@H](OC1OC(COC2OC(CO)C(O)C(O)C2O)C(O)C(O)C1O)c1ccccc1 (some centres not stated) , report its measured T/C.
103 % of control

Given the entry CN(C)CCC(=O)C(=Cc1ccc(O)cc1)C(=O)CCN(C)C , report its measured T/C.
77 % of control

Given the entry C[Si](C)(C)O/C=C1/CCOC1=O , report its measured T/C.
84 % of control

Given the entry CCOC(=O)C1=C(C#N)C2(CCC(OCc3ccccc3)CC2)C(=O)O1 (configuration not stated) , report its measured T/C.
35 % of control

Given the entry O=C1CN(CN2CCOCC2)C(=O)CN1CN1CCOCC1 , report its measured T/C.
115 % of control

Given the entry O=C(O)CCc1cccc2c(=O)cc(-c3ccccc3)oc12 , report its measured T/C.
60 % of control

---

Test system: BDF1 mice, colon carcinoma 38 sc, T/C %
procedure text: NCI In Vivo Anticancer Drug Screen. Data for tumor model Colon Carcinoma 38 (subcutaneous) in B6D2F1 (BDF1) mice
test conditions: endpoint: median tumor weight (est.); dose: 100.0 mg/kg/injection; schedule: Q07DX002 (ip); vehicle: saline with Tween-80; higher = larger tumour
Inconclusive results are not listed.
property name: T/C

Given the entry CC(/C=C/c1ccccc1)=Nc1ccccc1 , report its measured T/C.
92 % of control

Given the entry Oc1cc2ccccc2c(-c2c(O)c(O)cc3ccccc23)c1O , report its measured T/C.
81 % of control

Given the entry CC1(c2ccc(Cl)cc2)OC(=O)C(=Cc2ccc([N+](=O)[O-])s2)C(=O)O1 (stereo not drawn) , report its measured T/C.
100 % of control

Given the entry NC(=S)N/N=C/c1ccc(OC(=O)COc2ccc(Cl)cc2)cn1 , report its measured T/C.
89 % of control

Given the entry COc1ccc(OC)c(/C=C/c2ccnc3ccccc23)c1 , report its measured T/C.
116 % of control

Given the entry CC1(C)OC1CS(=O)c1ccccc1 (stereo not drawn) , report its measured T/C.
92 % of control

Given the entry COC1=CC(=O)C(OC)=C(OC)C1=O , report its measured T/C.
152 % of control

Given the entry Nc1ccc(S(N)(=O)=O)cc1 , report its measured T/C.
103 % of control

Given the entry N#Cc1c(N)[nH]c2ccc(Sc3ccccc3)cc12 , report its measured T/C.
73 % of control

Given the entry C1OCN2CSCC12 (stereo not drawn) , report its measured T/C.
85 % of control

Given the entry Nc1ccc2nc3c4ccccc4c(O)n3nc2c1 , report its measured T/C.
101 % of control

Given the entry Cc1ccccc1N(CC1CO1)CC1CO1 (stereo not drawn) , report its measured T/C.
57 % of control

Given the entry C=C/C(C)=C/[C@H](C)C(=O)C[C@H](O)CC1CC(=O)NC(=O)C1 , report its measured T/C.
102 % of control

---

Test system: BDF1 mice, colon carcinoma 38 sc, T/C %
procedure text: NCI In Vivo Anticancer Drug Screen. Data for tumor model Colon Carcinoma 38 (subcutaneous) in B6D2F1 (BDF1) mice
test conditions: endpoint: median tumor weight (est.); dose: 32.0 mg/kg/injection; schedule: Q07DX003 (ip); vehicle: saline with Tween-80; higher = larger tumour
Results filed as inconclusive are left out.
property name: T/C

Given the entry CC1=C(/C=C/C(C)=C/C=C/C(C)=C/C(=O)O)C(C)(C)CCC1 , report its measured T/C.
98 % of control

Given the entry CC(=O)OCC1C(=O)OCC1C(=O)N1Cc2cc3ccccc3nc2C1 (centres undefined) , report its measured T/C.
30 % of control

Given the entry CCOC(=O)C(CC(C)C)NC(=O)C(Cc1ccc(N(CCCl)CCCl)cc1)NC(C)=O (centres undefined) , report its measured T/C.
76 % of control

Given the entry NC(CSC(c1ccccc1)(c1ccccc1)c1ccccc1)C(=O)O (centres undefined) , report its measured T/C.
57 % of control

---

Test system: BDF1 mice, colon carcinoma 38 sc, T/C %
procedure text: NCI In Vivo Anticancer Drug Screen. Data for tumor model Colon Carcinoma 38 (subcutaneous) in B6D2F1 (BDF1) mice
test conditions: endpoint: median tumor weight (est.); dose: 8.0 mg/kg/injection; schedule: Q07DX002 (ip); vehicle: saline; higher = larger tumour
Records with an inconclusive call do not appear.
Consider the following compounds; for each one, report its T/C.

Given the entry O=C1c2ccccc2C(=O)c2c(NCCNCCO)ccc(NCCNCCO)c21 , report its measured T/C.
82 % of control

Given the entry Cc1c(N)nc(C(CC(N)=O)NCC(N)C(N)=O)nc1C(=O)NC(C(=O)NC(C)C(O)CC(=O)NC(C(=O)NC(OC1OC(C)C(N)C(O)C1O)C(O)c1nc(-c2nc(C(=O)NCCCC(N)CC(=O)NCCCNCCCCN)cs2)cs1)C(C)O)C(OC1OC(CO)C(O)C(O)C1OC1OC(CO)C(O)C(OC(N)=O)C1O)c1cnc[nH]1 (stereo not given) , report its measured T/C.
25 % of control

Given the entry OC(C1CO1)C(O)C1CO1 (stereo not given) , report its measured T/C.
58 % of control

Given the entry [Cl][Mn][Cl] , report its measured T/C.
81 % of control

Given the entry Nc1ncnc2c1ncn2C1C=C(CO)C(O)C1O (stereo not given) , report its measured T/C.
107 % of control

---

Consider the following compounds; for each one, report its T/C.
Test system: BDF1 mice, colon carcinoma 38 sc, T/C %
procedure text: NCI In Vivo Anticancer Drug Screen. Data for tumor model Colon Carcinoma 38 (subcutaneous) in B6D2F1 (BDF1) mice
test conditions: endpoint: median tumor weight (est.); dose: 25.0 mg/kg/injection; schedule: Q07DX002 (ip); vehicle: saline with Tween-80; higher = larger tumour
Records with an inconclusive call do not appear.

Given the entry CCC(CC)COC(=O)c1ccccc1C(=O)OCC(CC)CC , report its measured T/C.
71 % of control

Given the entry O=C1C(O)=C(c2ccccc2)C(=O)C(O)=C1c1ccccc1 , report its measured T/C.
111 % of control

Given the entry C=CS(=O)(=O)c1ccccc1 , report its measured T/C.
174 % of control

Given the entry C=C(C)C(=NC(C)(C)C)Nc1ccccc1 , report its measured T/C.
101 % of control

Given the entry C[n+]1c(/C=N/NC(N)=S)ccc2ccccc21 , report its measured T/C.
83 % of control

Given the entry Clc1ccc(CN2COc3c(ccc4cccnc34)C2)cc1Cl , report its measured T/C.
171 % of control

Given the entry ClC1=C(Cl)C(Cl)=C(Cl)C1=Cc1ccccc1 , report its measured T/C.
58 % of control

Given the entry CCCCCC1c2cc(O)ccc2OC1N1CCOCC1 (stereo not drawn) , report its measured T/C.
161 % of control

Given the entry Cc1cc(O)c(N=Nc2ccc(C(=O)O)cc2)cc1C , report its measured T/C.
108 % of control

Given the entry CNC(=O)n1c(N)nc(-c2ccccc2)c1-c1ccccc1 , report its measured T/C.
99 % of control

Given the entry O=C(O)C1Cc2nc[nH]c2CN1CO (stereo not drawn) , report its measured T/C.
93 % of control

Given the entry CC1(CO)C(O)CCC2(C)C1CCC1CC3CC12CCC3(O)CO (stereo not drawn) , report its measured T/C.
103 % of control

Given the entry OCC1OC(n2cnc3cc(Cl)c(Cl)cc32)C(O)C1O (stereo not drawn) , report its measured T/C.
98 % of control

---

Consider the following molecules; for each one, report its T/C.
Tested on: BDF1 mice, colon carcinoma 38 sc, T/C %
procedure text: NCI In Vivo Anticancer Drug Screen. Data for tumor model Colon Carcinoma 38 (subcutaneous) in B6D2F1 (BDF1) mice
test conditions: endpoint: median tumor weight (est.); dose: 25.0 mg/kg/injection; schedule: Q07DX002 (ip); vehicle: Klucel (hydroxypropylcellulose) (HPC); higher = larger tumour
Inconclusive results are not listed.

So what T/C did ClC1C(Cl)C(Cl)C(Cl)C(Cl)C1Cl (configuration not stated) get with BDF1 mice, colon carcinoma 38 sc, T/C %?
103 % of control

So what T/C did CN(C)c1ccc2c(N(C)C)cc(N(C)C)nc2c1 get with BDF1 mice, colon carcinoma 38 sc, T/C %?
72 % of control

So what T/C did Oc1c(Cl)cc(C(c2cc(Cl)c(O)c(Cl)c2)C(c2cc(Cl)c(O)c(Cl)c2)c2cc(Cl)c(O)c(Cl)c2)cc1Cl get with BDF1 mice, colon carcinoma 38 sc, T/C %?
123 % of control

So what T/C did O=S(=O)(O)O get with BDF1 mice, colon carcinoma 38 sc, T/C %?
110 % of control

So what T/C did O=c1oc2c(O)c(O)cc3c(=O)oc4c(O)c(O)cc1c4c23 get with BDF1 mice, colon carcinoma 38 sc, T/C %?
200 % of control

So what T/C did COC1C(CO)OC(n2cnc3c(=S)nc(N)[nH]c32)C1O (configuration not stated) get with BDF1 mice, colon carcinoma 38 sc, T/C %?
74 % of control

So what T/C did O=C1CC2(C(=O)N1CN1CCCCC1)c1ccccc1-c1ccccc12 get with BDF1 mice, colon carcinoma 38 sc, T/C %?
97 % of control

So what T/C did CCOC(=O)Nc1cc2c(c(N)n1)N=C(CN(C)c1ccccc1)CN2 get with BDF1 mice, colon carcinoma 38 sc, T/C %?
88 % of control

So what T/C did Cc1ncc(CNC(=O)N(CCCl)N=O)c(N)n1 get with BDF1 mice, colon carcinoma 38 sc, T/C %?
32 % of control

So what T/C did O=c1[nH]cnc2n[nH]nc12 get with BDF1 mice, colon carcinoma 38 sc, T/C %?
110 % of control

So what T/C did C=CS(C=C)=NS(=O)(=O)c1ccc(C)cc1 get with BDF1 mice, colon carcinoma 38 sc, T/C %?
94 % of control

So what T/C did Nc1nc(N)c2cc(CNc3ccc(C(=O)NC(CC(=O)O)CC(=O)O)cc3)ccc2n1 get with BDF1 mice, colon carcinoma 38 sc, T/C %?
120 % of control
